Each entry below carries its reported growth.
- Test system: A549/ATCC NSCLC
- experiment notes: NCI-60 one-dose screen, 48 h (100 = growth as untreated, 0 = no growth, -100 = all killed)
- condition details: 10 µM unless noted
This is part of a sample that, as a whole, favours compounds with a hit. Of some 83,000 tested, about 20% had one in any assay.
reported metric: growth (%)

compound	reported measurement
NN1C(=O)CSC1=S	65.5
CN1CCC(CNc2ccc3ncc(-c4cccc(OC(F)(F)F)c4)n3n2)CC1	-38.4
C1=C\COCc2cc(ccc2OCCN2CCCC2)Nc2nccc(n2)-c2cccc(c2)COC/1	-17.3
COc1c(C(NC(=O)c2ccccc2)c2sccc2C)cc(Cl)c2cccnc12 (stereo not drawn)	75.7
COC(=O)[C@@H](OC)[C@@H]1Cc2cc3cc(OC4CC(OC5CC(O)C(O)C(C)O5)C(O)C(C)O4)c(C)c(O)c3c(O)c2C(=O)[C@H]1OC1CC(OC2CC(OC3CC(C)(O)C(O)C(C)O3)C(O)C(C)O2)C(O)C(C)O1 (stereo partly drawn)	8.71
O=C1NC(=O)[C@@H](c2cn3c4c(cccc24)CCC3)[C@@H]1c1c[nH]c2ccccc12	6.25
COC(=O)[C@H](Cc1ccc(O)cc1)NC(=O)[C@@H](OC)[C@@H]1Cc2cc3cc(OC4CC(OC5CC(O)C(O)C(C)O5)C(O)C(C)O4)c(C)c(O)c3c(O)c2C(=O)[C@H]1OC1CC(OC2CC(OC3CC(C)(O)C(O)C(C)O3)C(O)C(C)O2)C(O)C(C)O1 (stereo partly drawn)	4.32
C=CC(=O)Nc1cc2c(Nc3ccc(F)c(Cl)c3)ncnc2cc1OCCCN1CCOCC1	22.9
